Target: Ubiquitin carboxyl-terminal hydrolase 10 (Homo sapiens) (UniProt Q14694)
Sequence (Q14694 whole entry, looked up): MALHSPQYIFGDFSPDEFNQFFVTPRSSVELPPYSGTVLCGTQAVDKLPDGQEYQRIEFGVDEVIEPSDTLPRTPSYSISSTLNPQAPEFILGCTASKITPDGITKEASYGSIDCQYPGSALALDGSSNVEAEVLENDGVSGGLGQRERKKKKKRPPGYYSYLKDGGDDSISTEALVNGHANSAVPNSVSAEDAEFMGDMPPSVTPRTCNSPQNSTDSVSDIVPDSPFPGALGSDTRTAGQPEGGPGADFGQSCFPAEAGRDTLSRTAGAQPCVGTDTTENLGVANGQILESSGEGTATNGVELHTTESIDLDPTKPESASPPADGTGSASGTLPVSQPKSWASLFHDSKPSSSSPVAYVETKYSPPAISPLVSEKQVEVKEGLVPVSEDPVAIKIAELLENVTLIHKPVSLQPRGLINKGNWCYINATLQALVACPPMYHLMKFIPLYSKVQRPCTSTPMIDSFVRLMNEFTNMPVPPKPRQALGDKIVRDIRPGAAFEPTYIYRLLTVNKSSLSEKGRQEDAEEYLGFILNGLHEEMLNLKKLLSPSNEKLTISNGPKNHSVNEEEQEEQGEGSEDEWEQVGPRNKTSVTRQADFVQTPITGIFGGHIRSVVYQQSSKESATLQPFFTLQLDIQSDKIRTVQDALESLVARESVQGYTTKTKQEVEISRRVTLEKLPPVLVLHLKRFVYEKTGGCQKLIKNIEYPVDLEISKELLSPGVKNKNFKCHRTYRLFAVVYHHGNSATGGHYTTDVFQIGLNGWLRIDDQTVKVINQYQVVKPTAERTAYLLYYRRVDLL
Test: ubiquitin-specific protease 10 DUB inhibitors, concentration-effect, biochemical, verification of primary screen actives (AID 1645863);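 also: potency values describe inhibition of USP10 cleavage of a fluorogenic ubiquitin substrate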
Settings: USP10 deubiquitinase enzymatic assay
Activity calls are given as the source filed them. No rule for the calls is given here.
# output must be one of yes (active), no (inactive)

For orientation, consider the following solved cases.
>>> class("N=C1/C(=C/c2cn(Cc3ccccc3F)c3ccccc23)C(=O)N=C2SC(C(F)(F)F)=NN12")
"no"
>>> class("CCOc1ccc2cc3c(nc2c1)OC(=O)N(Cc1ccc(OC)cc1)C3")
"yes"
>>> class("COc1ccc(NC(=O)Cn2c(=O)n(CCC(=O)NCc3ccccc3)c(=O)c3sccc32)cc1Cl")
"no"
>>> class("CCc1ccc(S(=O)(=O)c2cn(CC(=O)Nc3ccccc3)c3ccccc3c2=O)cc1")
"no"

API: the following record is the query input.
## Task Per the assay record, what outcome was assigned to O=C(Cn1c(=O)[nH]c2c(-c3ccccc3)c[nH]c2c1=O)NCc1ccccc1Cl ?
## Result no

* * *

Biological target: Ubiquitin carboxyl-terminal hydrolase 10 (Homo sapiens) (UniProt Q14694)
Assay: ubiquitin-specific protease 10 DUB inhibitors, concentration-effect, biochemical, verification of primary screen actives (AID 1645863)
Conditions: USP10 deubiquitinase enzymatic assay
Active and inactive are the calls of the source. How the calls were made is not given here.
# output must be one of active, inactive

>>> class("O=C(c1cc2occc2c(Nc2ccc(F)cc2)n1)N1CCN(c2ccccc2)CC1")
"inactive"

## Task Per the assay record, what outcome was assigned to C[C@H](Cc1cc2c(cc1O)OCO2)[C@@H](C)Cc1cc2c(cc1O)OCO2 ?
## Result active

## Task Try COc1ccc(OCCn2c(C3CC(=O)N(c4cccc(C)c4)C3)nc3ccccc32)cc1 (stereo not given) next.
## Result active

## Task Try CCCCN1Cc2sc(NC(=O)Nc3ccccc3C)nc2C1=O next.
## Result active

## Task Try O=C(Cn1c(=O)c2cccn2c2ccccc21)NCc1ccc(F)cc1 next.
## Result inactive

## Task Try CCOc1ccc(CCNC(=O)Cn2c(-c3ccc(F)cc3)cc(C(C)=O)c2C)cc1OCC next.
## Result inactive

## Task Try Cc1ccc2c(c1)c(=O)c(C(=O)c1ccccc1)cn2CC(=O)Nc1ccc2c(c1)OCO2 next.
## Result inactive

## Task Try COc1ccccc1-c1noc(CCCC(=O)Nc2ccccc2)n1 next.
## Result inactive

## Task Try O=C(CCSc1nnnn1-c1ccccc1)Nc1cc(C(F)(F)F)ccc1Cl next.
## Result inactive

## Task Try Nc1ncnc2c1ncn2[C@@H]1O[C@H](CO)C[C@@H]1O next.
## Result active

* * *

Target: UniProt Q14694
Assay: ubiquitin-specific protease 10 DUB inhibitors, concentration-effect, biochemical, verification of primary screen actives (AID 1645863)
Details: USP10 deubiquitinase enzymatic assay
The source made the active and inactive calls. No rule for the calls is given here.
Overview of reported IC50 across a group of compounds:

# annotated cases, reported IC50 shown
>>> result("O=C(CCCn1c(=O)c2cc(Cl)ccc2n(CC(=O)Nc2cccc(F)c2)c1=O)NCc1ccco1")
"> 40 µM (inactive)"
>>> result("COc1ccc(C(=O)COC(=O)c2ccccc2NS(=O)(=O)c2ccc(O)c([N+](=O)[O-])c2)cc1")
"9.78 µM"
>>> result("O=c1oc2c3c(c(Cl)cc2c2c1CCCC2)OCN(Cc1ccccc1)C3")
"> 40 µM (inactive)"
>>> result("CCOc1ccccc1NC(=O)Cn1c(=O)n(CCC(=O)NCCc2ccc(OC)c(OC)c2)c(=O)c2ccccc21")
"> 40 µM (inactive)"

## Task Name the recorded IC50 for Cc1cccn2c(=O)c3cc(C#N)c(=O)n(-c4cccc(C(F)(F)F)c4)c3nc12 .
## Result > 40 µM (inactive)

## Task Try Cc1c(OCC(=O)NCc2ccccc2Cl)ccc2c3c(c(=O)oc12)CCC3 next.
## Result > 40 µM (inactive)

## Task Try COc1ccccc1-c1nc(-c2cn(-c3ccc(F)cc3)nn2)no1 next.
## Result 15.6 µM

## Task Try O=C(Cn1nc2c3c4c(sc3ncn2c1=O)CCCCC4)Nc1ccc(Cl)cc1F next.
## Result 10.9 µM

## Task Try Cc1c(-c2nc(-c3ccccc3Cl)no2)nnn1-c1cccc(F)c1 next.
## Result > 40 µM (inactive)

* * *

Molecular target: Ubiquitin carboxyl-terminal hydrolase 10 (Homo sapiens) (UniProt Q14694)
Test: ubiquitin-specific protease 10 DUB inhibitors, concentration-effect, biochemical, verification of primary screen actives (AID 1645863);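 also: potency values describe inhibition of USP10 cleavage of a fluorogenic ubiquitin substrate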
Conditions: USP10 deubiquitinase enzymatic assay
Active and inactive are the calls of the source. No rule for the calls is given here.
# output must be one of active, inactive

## Task Per the assay record, what outcome was assigned to Cc1ccc(CNC(=O)c2cccc(N3C(=O)N4CCc5c([nH]c6ccccc56)[C@@]4(C)C3=O)c2)cc1 ?
## Result inactive

## Task Try COc1c(C)c(C(O)C(C)O)c2[nH]c3ccc(CC=C(C)C)cc3c2c1O (stereo not given) next.
## Result inactive

## Task Try COc1cccc(NC(=O)Cn2c3ccccc3n3c(=O)cc(-c4ccccc4)nc23)c1 next.
## Result active

## Task Try N#Cc1ccc(NC(=O)Nc2cccn(Cc3ccccc3Br)c2=O)cc1 next.
## Result inactive

## Task Try COCCCN1CCS(=O)(=O)c2c(Cl)c(F)nc(Oc3ccccc3F)c21 next.
## Result inactive

## Task Try O=c1c(O)c(-c2ccc(O)c(O)c2)oc2cc(O)cc(O)c12 next.
## Result active

## Task Try Cc1cccc(C)c1NC(=O)Cn1c(=O)n(CCCCC(=O)NCc2ccc3c(c2)OCO3)c(=O)c2ccccc21 next.
## Result active

## Task Try CCc1ccc(NC(=O)CSc2nc3nccnc3c(=O)n2Cc2ccc(F)cc2)cc1 next.
## Result inactive

## Task Try CCCCCCCCCCCC1=C(O)C(=O)C=C(O)C1=O next.
## Result active

## Task Try COC(=O)c1ccc(N2CCN(C(C)=O)CC2)c(NC(=O)COc2ccc([N+](=O)[O-])cc2)c1 next.
## Result active

* * *

Molecular target: Ubiquitin carboxyl-terminal hydrolase 10 (Homo sapiens)
Test: ubiquitin-specific protease 10 DUB inhibitors, concentration-effect, biochemical, verification of primary screen actives (AID 1645863);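 also: potency values describe inhibition of USP10 cleavage of a fluorogenic ubiquitin substrate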
Details: USP10 deubiquitinase enzymatic assay
Activity calls are given as the source filed them. The rule behind the calls is not given here.
# output must be one of t for active, f for inactive

>>> class("O=C(NCc1ccco1)c1ccc(Cn2c(SCc3ccccc3)nc3ccncc32)cc1")
"f"
>>> class("O=C(c1ccco1)N1CCCC1c1nc(-c2ccccc2)n[nH]1 (stereo not given)")
"f"
>>> class("Cc1cc(C)c2nc3c(cc2c1)CN(Cc1ccco1)C(=O)O3")
"f"
>>> class("O=C(Nc1cccc(-c2nc3cnccc3o2)c1)c1ccc(Br)o1")
"f"

## Task Per the assay record, what outcome was assigned to NC(=O)C[C@H](NC(=O)[C@H](Cc1ccccc1)n1c(=O)[nH]c2ccccc2c1=O)C(=O)N[C@@H](Cc1ccccc1)C(=O)O ?
## Result f

## Task Try CCOc1ccccc1NC(=O)Cn1c(=O)n(CCCC(=O)NCc2ccc(C)cc2)c(=O)c2sccc21 next.
## Result f

## Task Try O=C(Nc1ccccc1C(=O)O)c1ccc(CSCc2ccccc2)cc1 next.
## Result t

## Task Try COc1ccc(NS(=O)(=O)c2cc(NC(=O)/C=C/c3ccco3)ccc2N2CCCC2)cc1 next.
## Result f

## Task Try Cc1c(-c2nsc(NC(=O)c3ccc(Cl)cc3)n2)nnn1-c1ccccc1F next.
## Result t

## Task Try Cc1cc(=O)[nH]c(NC2CCN(S(=O)(=O)c3ccccc3C(F)(F)F)CC2)n1 next.
## Result f

## Task Try O=C(Nc1ccc(Cl)cc1F)c1cc(-c2ccccn2)n[nH]1 next.
## Result f

## Task Try COc1cccc2cc(C(=O)Nc3nc(-c4ccncc4)cs3)oc12 next.
## Result t

## Task Try O=c1cc(Cc2ccccc2)nc2c(-c3ccccc3)c(COc3ccccc3)[nH]n12 next.
## Result f

* * *

Biological target: Ubiquitin carboxyl-terminal hydrolase 10 (Homo sapiens) (UniProt Q14694)
Assay: ubiquitin-specific protease 10 DUB inhibitors, concentration-effect, biochemical, verification of primary screen actives (AID 1645863);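 also: potency values describe inhibition of USP10 cleavage of a fluorogenic ubiquitin substrate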
Details: USP10 deubiquitinase enzymatic assay
Active and inactive are the calls of the source. How the calls were made is not given here.
Overview of reported IC50 across a group of compounds:

# annotated cases, reported IC50 shown
>>> result("CN1CCc2c(C#N)c(N3CCOCC3)nc(NCC3CCCO3)c2C1 (stereo not given)")
"> 40 µM (inactive)"
>>> result("COc1ccc(Cl)cc1NC(=O)c1nc(-c2cn(-c3ccccc3)nn2)no1")
"14.1 µM"
>>> result("Cn1cc(C(=O)Nc2ccccc2)c2[nH]c(=O)n(Cc3ccccc3)c(=O)c21")
"> 40 µM (inactive)"
>>> result("C/C(=C\\Cc1c(O)cc(C)c(C=O)c1O)CC[C@@]1(C)[C@H](C)CCC(=O)[C@@H]1C")
"> 40 µM (inactive)"
>>> result("O=C(CCCCn1c(=O)c2ccccc2n(CC(=O)Nc2ccc3c(c2)OCCO3)c1=O)NCc1ccco1")
"25.2 µM"

## Task Name the recorded IC50 for Cc1ncc(CO)c2c1Oc1nc(-c3cccc(Cl)c3)nc(SCC(=O)N3CCCCC3)c1C2 .
## Result > 40 µM (inactive)

## Task Try O=C(COc1ccc(Cl)cc1)Nc1noc(-c2cccs2)n1 next.
## Result > 40 µM (inactive)

## Task Try COc1cc(NC(=O)Cc2ccccc2)ccc1NC(=O)c1cc2ccccc2o1 next.
## Result 28.1 µM
